Target: human HDAC-1 (Homo sapiens, UniProt Q13547)
Construct: made in house; host or cells: insect cells (baculovirus expression system)
Sequence (Q13547 whole entry): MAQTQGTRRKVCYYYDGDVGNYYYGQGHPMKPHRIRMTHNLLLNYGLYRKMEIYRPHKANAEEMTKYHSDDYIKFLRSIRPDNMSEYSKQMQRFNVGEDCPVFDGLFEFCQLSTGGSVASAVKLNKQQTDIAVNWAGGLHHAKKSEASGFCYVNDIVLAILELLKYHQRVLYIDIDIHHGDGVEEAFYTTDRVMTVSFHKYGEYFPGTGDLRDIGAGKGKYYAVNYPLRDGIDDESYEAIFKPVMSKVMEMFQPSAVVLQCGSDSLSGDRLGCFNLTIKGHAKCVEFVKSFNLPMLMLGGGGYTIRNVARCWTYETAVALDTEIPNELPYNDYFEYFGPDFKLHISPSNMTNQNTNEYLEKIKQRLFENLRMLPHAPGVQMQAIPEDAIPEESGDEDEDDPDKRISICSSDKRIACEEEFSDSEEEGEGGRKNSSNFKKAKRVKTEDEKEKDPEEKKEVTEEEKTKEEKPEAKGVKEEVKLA
Test: histone deacetylase enzyme assay, HDAC-1
Format: biochemical
Description: The other HDAC isotypes, HDAC-3 and HDAC-4, were purified directly on an anti-Flag affinity column. For the deacetylase assay, 20,000 cpm of an [^3H]-metabolically-labeled acetylated histone was used as a substrate. […] All assay conditions were pre-determined to be certain that each reaction was linear. […] The mixture was extracted with ethyl acetate, and the released [3H]-acetic acid was quantified by liquid scintillation counting. […]
quantity: IC50 (µM)
Please state the figure in µM; there is no need to write the unit.

// fetch human HDAC-1 (Homo sapiens, UniProt Q13547) IC50 for Cc1ccc(S(=O)(=O)Nc2ccc(/C=C/C(=O)Nc3ccccc3N)cc2)cc1 [MG 376 3]
3

// fetch human HDAC-1 (Homo sapiens, UniProt Q13547) IC50 for CC(/C=C/C(=O)Nc1ccccc1N)=C\C(C)C(=O)c1ccc(N(C)C)cc1 (centres unmarked) [MG 242 9]
3

* * *

Biological target: human HDAC-4 (Homo sapiens)
Construct: Flag; made in house; host or cells: human embryonic kidney 293 cells (calcium phosphate transfection)
Sequence (P56524 whole entry): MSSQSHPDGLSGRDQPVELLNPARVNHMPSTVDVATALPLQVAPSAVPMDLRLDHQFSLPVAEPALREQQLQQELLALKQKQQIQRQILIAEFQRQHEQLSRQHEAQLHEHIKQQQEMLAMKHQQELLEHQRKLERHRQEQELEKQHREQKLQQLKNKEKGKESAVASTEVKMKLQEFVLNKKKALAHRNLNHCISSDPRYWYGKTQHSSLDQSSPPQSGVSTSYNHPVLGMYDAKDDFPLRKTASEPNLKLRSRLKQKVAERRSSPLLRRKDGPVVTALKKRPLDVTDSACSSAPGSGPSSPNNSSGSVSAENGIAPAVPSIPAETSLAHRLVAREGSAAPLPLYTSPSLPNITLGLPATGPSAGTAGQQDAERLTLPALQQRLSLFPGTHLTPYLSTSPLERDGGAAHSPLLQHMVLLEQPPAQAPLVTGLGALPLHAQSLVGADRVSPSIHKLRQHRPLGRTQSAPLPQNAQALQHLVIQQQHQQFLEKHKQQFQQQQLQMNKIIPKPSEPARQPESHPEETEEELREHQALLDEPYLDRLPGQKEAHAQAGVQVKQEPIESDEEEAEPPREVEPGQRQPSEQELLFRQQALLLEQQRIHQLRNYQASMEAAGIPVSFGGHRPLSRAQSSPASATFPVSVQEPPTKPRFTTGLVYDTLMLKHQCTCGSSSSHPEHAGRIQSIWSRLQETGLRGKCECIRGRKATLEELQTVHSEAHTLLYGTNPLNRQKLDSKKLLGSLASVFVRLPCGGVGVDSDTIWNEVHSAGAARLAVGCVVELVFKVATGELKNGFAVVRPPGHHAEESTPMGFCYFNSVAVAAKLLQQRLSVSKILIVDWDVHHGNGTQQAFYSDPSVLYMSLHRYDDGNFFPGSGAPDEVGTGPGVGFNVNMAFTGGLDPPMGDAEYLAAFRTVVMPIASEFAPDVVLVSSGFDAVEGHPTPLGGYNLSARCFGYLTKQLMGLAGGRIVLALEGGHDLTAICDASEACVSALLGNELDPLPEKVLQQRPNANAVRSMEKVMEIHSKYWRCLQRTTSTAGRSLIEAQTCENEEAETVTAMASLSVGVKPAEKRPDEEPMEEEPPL
Assay: histone deacetylase enzyme assay, HDAC-4
Format: biochemical
quantity: IC50 (µM)
Please state the figure in µM; there is no need to write the unit.

// query IC50 value for entry Cc1ccc(S(=O)(=O)Nc2ccc(/C=C/C(=O)Nc3ccccc3N)cc2)cc1
28

// query IC50 value for entry CC(/C=C/C(=O)Nc1ccccc1N)=C\C(C)C(=O)c1ccc(N(C)C)cc1 (stereo not shown)
23

// query IC50 value for entry Nc1ccccc1NC(=O)CCCCCCC(=O)c1ccc(-c2ccccc2)nc1
13

// query IC50 value for entry Nc1ccccc1NC(=O)CCCCCCC(=O)c1ccc(-c2ccccc2)cc1
23

* * *

Molecular target: human HDAC-3 (Homo sapiens, UniProt O15379)
Construct: made in house; host or cells: insect cells (baculovirus expression system)
Sequence (O15379 whole entry): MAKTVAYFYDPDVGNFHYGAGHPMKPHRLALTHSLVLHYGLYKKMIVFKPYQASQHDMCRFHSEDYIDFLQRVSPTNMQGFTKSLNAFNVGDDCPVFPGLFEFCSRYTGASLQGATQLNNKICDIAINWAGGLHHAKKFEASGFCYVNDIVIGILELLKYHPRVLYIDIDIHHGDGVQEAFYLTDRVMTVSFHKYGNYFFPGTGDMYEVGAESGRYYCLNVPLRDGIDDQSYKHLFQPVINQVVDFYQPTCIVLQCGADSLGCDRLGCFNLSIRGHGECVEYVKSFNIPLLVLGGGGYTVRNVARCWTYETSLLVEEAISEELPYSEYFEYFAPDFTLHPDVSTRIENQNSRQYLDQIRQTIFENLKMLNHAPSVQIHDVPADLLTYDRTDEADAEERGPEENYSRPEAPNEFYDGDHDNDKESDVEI
Assay: histone deacetylase enzyme assay, HDAC-3
Assay type: biochemical
From the text: The other HDAC isotypes, HDAC-3 and HDAC-4, were purified directly on an anti-Flag affinity column. For the deacetylase assay, 20,000 cpm of an [^3H]-metabolically-labeled acetylated histone was used as a substrate. […] All assay conditions were pre-determined to be certain that each reaction was linear. […] The mixture was extracted with ethyl acetate, and the released [3H]-acetic acid was quantified by liquid scintillation counting. […]
quantity: IC50 (µM)
Please state the figure in µM; there is no need to write the unit.

// query IC50 value for entry Cc1ccc(S(=O)(=O)Nc2ccc(/C=C/C(=O)Nc3ccccc3N)cc2)cc1
45

// query IC50 value for entry CC(/C=C/C(=O)Nc1ccccc1N)=C\C(C)C(=O)c1ccc(N(C)C)cc1 (stereo not shown)
21

// query IC50 value for entry Nc1ccccc1NC(=O)CCCCCCC(=O)c1ccc(-c2ccccc2)nc1
18

Reference source for all entries: patent US20030148970A1
